B1: VH:VL chains; a variant is named by its letters at X, in order (parent)
chain 1: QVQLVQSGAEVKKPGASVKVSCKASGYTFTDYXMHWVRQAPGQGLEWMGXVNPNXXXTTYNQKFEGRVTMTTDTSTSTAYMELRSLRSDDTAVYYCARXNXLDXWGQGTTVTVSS
chain 2: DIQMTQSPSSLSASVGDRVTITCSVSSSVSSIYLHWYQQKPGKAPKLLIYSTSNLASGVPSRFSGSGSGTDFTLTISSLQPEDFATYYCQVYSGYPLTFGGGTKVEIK

- Variants of: B1
- METHOD_DESCRIPTION: yeast display scFab, FACS + sequencing
MEASURED_ENDPOINT: non-specific binding call

>>> recorded_result("YRRRGDGV")
"binds"
>>> recorded_result("VETEGDGV")
"no binding"
>>> recorded_result("SEGGTDVV")
"no binding"
>>> recorded_result("YEGGGYSF")
"no binding"
